This listing pairs molecules with measured pIC50.
Target: m-calpain (Rattus norvegicus)
Construct: m-calpain was purified from rat brain; from tissue; host or cells: rat brain
Sequence (Q07009 20-700 limits assumed): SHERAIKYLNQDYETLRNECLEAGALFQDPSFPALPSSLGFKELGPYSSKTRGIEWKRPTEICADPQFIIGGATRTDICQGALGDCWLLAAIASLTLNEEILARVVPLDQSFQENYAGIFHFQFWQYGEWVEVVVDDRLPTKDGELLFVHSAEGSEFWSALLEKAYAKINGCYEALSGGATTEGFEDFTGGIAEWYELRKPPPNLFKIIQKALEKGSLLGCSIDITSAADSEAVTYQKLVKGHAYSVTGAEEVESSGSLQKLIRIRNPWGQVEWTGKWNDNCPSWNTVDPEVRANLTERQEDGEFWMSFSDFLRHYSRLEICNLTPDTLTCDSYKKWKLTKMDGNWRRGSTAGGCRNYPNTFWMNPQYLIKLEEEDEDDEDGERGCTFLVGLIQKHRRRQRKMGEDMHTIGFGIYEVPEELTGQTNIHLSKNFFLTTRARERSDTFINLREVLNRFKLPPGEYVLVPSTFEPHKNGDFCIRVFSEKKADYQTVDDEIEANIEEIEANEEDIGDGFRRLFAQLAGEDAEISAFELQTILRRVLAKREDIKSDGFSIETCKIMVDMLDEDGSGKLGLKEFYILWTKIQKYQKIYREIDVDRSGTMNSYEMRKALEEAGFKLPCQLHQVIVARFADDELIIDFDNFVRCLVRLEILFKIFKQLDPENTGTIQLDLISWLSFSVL
Sequence (Q64537 whole entry partner): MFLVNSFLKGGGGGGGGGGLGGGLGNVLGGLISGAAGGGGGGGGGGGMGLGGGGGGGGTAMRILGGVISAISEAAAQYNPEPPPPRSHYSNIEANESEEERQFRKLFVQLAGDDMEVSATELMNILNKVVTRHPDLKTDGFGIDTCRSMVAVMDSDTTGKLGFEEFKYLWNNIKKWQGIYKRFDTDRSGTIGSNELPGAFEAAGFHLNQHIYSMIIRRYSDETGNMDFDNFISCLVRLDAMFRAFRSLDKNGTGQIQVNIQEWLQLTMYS
Experiment: Thiol protease inhibitory activity, m-calpain purified from rat brain
Type: biochemical
Conditions: Table 4
pIC50: −log10 of the molar value.
Reported Endpoint: pIC50

- Structure Smiles String: "CCCC[C@H](NC(=O)[C@H](CC(C)C)NC(=O)c1cccc(F)c1F)C(=O)CSCc1ccco1"
  Obs Value: 5.80
- Structure Smiles String: "CC(C)C[C@H](NC(=O)OCc1ccccc1)C(=O)N[C@@H](Cc1ccccc1)C(=O)CSCc1ccco1"
  Obs Value: 5.35
- Structure Smiles String: "CCCC[C@H](NC(=O)[C@H](CC(C)C)NC(=O)c1cccc(F)c1)C(=O)CSCc1ccco1"
  Obs Value: 5.28
- Structure Smiles String: "CCCC[C@H](NC(=O)[C@H](CC(C)C)NC(=O)c1ccc(F)c(F)c1)C(=O)CSCc1ccco1"
  Obs Value: 5.37
